- system: Histone deacetylase 11 (Homo sapiens)
- Sequence (Q96DB2 whole entry): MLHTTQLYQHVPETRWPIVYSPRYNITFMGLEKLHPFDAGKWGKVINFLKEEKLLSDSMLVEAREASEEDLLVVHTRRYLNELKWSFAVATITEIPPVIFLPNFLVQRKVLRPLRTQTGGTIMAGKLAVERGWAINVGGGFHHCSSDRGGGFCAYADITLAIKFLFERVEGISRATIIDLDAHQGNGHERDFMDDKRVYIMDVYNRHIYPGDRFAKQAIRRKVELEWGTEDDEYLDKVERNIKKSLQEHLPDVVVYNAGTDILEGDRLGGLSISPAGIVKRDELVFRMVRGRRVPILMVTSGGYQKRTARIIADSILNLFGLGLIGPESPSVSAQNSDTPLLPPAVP
- assay.details: Inhibition of full length human recombinant HDAC11 expressed in baculovirus infected insect S9 cells after 30 mins by fluorescence assay
value.type: pIC50
pIC50 here: minus log base 10 of the concentration, concentration in moles per litre.

Give the measured pIC50 of "O=C(CCCCCOc1no[n+]([O-])c1S(=O)(=O)c1ccccc1)NO" .
6.22

###

- assay.details: Cytotoxicity against human HCT116 cells assessed as growth inhibition after 48 hrs by MTT assay
- Assay type: functional, cell-based
- assay.context: HCT-116, 48 h
Reported IC50 values are given for each entry in this list.
Unit µM implied. Number only.

Completed entries (count: 5):
>>> recorded_measurement("O=C(COCCOCCOc1no[n+]([O-])c1S(=O)(=O)c1ccccc1)NO")
11.7
>>> recorded_measurement("O=C(NO)c1ccc(Oc2no[n+]([O-])c2S(=O)(=O)c2ccccc2)cc1")
2.7
>>> recorded_measurement("O=C(NO)c1cccc(Oc2no[n+]([O-])c2S(=O)(=O)c2ccccc2)c1")
4.57
>>> recorded_measurement("O=C(COCCOc1no[n+]([O-])c1S(=O)(=O)c1ccccc1)NO")
13.4
>>> recorded_measurement("O=C(CCCCCCOc1no[n+]([O-])c1S(=O)(=O)c1ccccc1)NO")
4.69

Now for another entry.
For the molecule CCCC(C)(COc1no[n+]([O-])c1S(=O)(=O)c1ccccc1)C(=O)NO (stereo unspecified) , what IC50 is on record?
66.1

###

- assay.details: Cytotoxicity against human KG1 cells assessed as growth inhibition after 48 hrs by MTT assay
- Format: functional, cell-based
- assay.context: KG-1, 48 h
compounds and their reported pIC50
Hey, just a heads up that pIC50 is the negative log base 10 of the concentration in molar.

>>> recorded_measurement("O=C(CCCCCOc1no[n+]([O-])c1S(=O)(=O)c1ccccc1)NO")
5.76

I would be grateful if you could share the reported pIC50 for "O=C(COCCOCCOc1no[n+]([O-])c1S(=O)(=O)c1ccccc1)NO" .
5.27

Form field: reported pIC50 of "CC(C)(COc1no[n+]([O-])c1S(=O)(=O)c1ccccc1)C(=O)NO"
5.22

###

- System: HUVEC
- assay.details: Cytotoxicity against HUVEC assessed as growth inhibition after 48 hrs by MTT assay
- Format: cell-based
- assay.context: Homo sapiens
value.type: pIC50
The quantity pIC50 is defined as the negative base-10 logarithm of the molar concentration.

What pIC50 value was documented for this molecule, "O=C(CCCCCOc1no[n+]([O-])c1S(=O)(=O)c1ccccc1)NO" ?
4.57
